Source listed as patent US20220356174A1.

target: SMARCA2 (Homo sapiens, UniProt P51531)
metric-name: log10(IC50) (log10 of the value in nM)
Values below are the log10 of the recorded IC50, with nM as the unit.

Field: example entries. Status: answers known.
> print(dat)
                                    molecule  test.value
 1  CCn1cc(NC(=O)c2cc(Cl)c(C#N)s2)cc(F)c1=O [Compound 128]        2.35
 2  O=C(Nc1cc(Cl)c(=O)n(CCF)c1)c1cc(Cl)c(Cl)s1 [Compound 101]        2.50
 3  O=C(Nc1cc(F)c(=O)n(CCF)c1)c1cnc(C(F)F)s1 [Compound 295]        2.70
 4  N#Cc1cc(C(=O)Nc2cc(F)c(=O)n(CCF)c2)sc1Cl [Compound 196]        1.26
 5  Cn1c(C(=O)Nc2cc(F)c(=O)n(CC(F)(F)F)c2)cc(Cl)c1Cl [Compound 144]        3.10
 6  O=C(Nc1cc(F)c(=O)n(CCF)c1)c1cnc(Cl)s1 [Compound 142]        1.78
 7  O=C(Nc1cc(F)c(=O)n(CCF)c1)c1cc(F)c(Cl)s1 [Compound 260]        1.26
 8  N#Cc1sc(C(=O)Nc2cc(Cl)c(=O)n(CCF)c2)cc1Cl [Compound 125]        1.82
 9  N#Cc1sc(C(=O)Nc2cc(Cl)c(=O)n(CC(F)(F)F)c2)cc1Cl [Compound 131]        2.23
10  O=C(Nc1cc(F)c(=O)n(CCF)c1)c1cc(Cl)c(C(F)F)s1 [Compound 290]        2.61

State recorded log10(IC50) with SMARCA2 (Homo sapiens, UniProt P51531), entry O=C(Nc1cc(F)c(=O)n(CCF)c1)c1cc(Cl)c(Cl)s1 [Compound 129] , no comment.
2.06

* * *

Reported IC50 is given for each of the following compounds.
molecular target: FL-SMARCA4 (Homo sapiens); test: SMARCA4 ATPase activity assay (ADP-Glo, chicken mononucleosome substrate); settings: FL-SMARCA4 IC>50, Table 3c.2; ATPase assay, enzyme 5 nM, ATP 250 uM, chicken mononucleosome 10 nM, 30 min preincubation
Entry rule: numbers only, all in µM.

Field: example entries. Status: answers known.
> print(dat)
                                   compound  metric.name  unit.of.measurement  test.value
1  O=C(Nc1cc(F)c(=O)n(CC(F)F)c1)c1cc(C#Cc2ccc(Cl)cc2)c(Cl)s1 [Compound 35c]         IC50                   µM       0.905
2  CNC(=O)c1cncc(C#Cc2cc(C(=O)Nc3cc(F)c(=O)n(CC(F)F)c3)sc2Cl)c1 [Compound 129c]         IC50                   µM       0.143
3  NC(=O)Cn1cc(C#Cc2cc(C(=O)Nc3cc(F)c(=O)n(CC(F)F)c3)sc2Cl)cn1 [Compound 120c]         IC50                   µM       0.239

Entry CN1CCC(C#Cc2cc(C(=O)Nc3cc(F)c(=O)n(CC(F)F)c3)sc2Cl)CC1 [Compound 29c] needs its IC50 filled in; supply it.
41.4

* * *

target: UniProt:P51532; assay: SMARCA4 ATPase activity assay (ADP-Glo, chicken mononucleosome substrate); settings: FL-SMARCA4 IC50, Table 3.2; ATPase assay, enzyme 5 nM, ATP 250 uM, chicken mononucleosome 10 nM, 30 min preincubation
Reported pIC50 is given for each of the following molecules.
The meaning of pIC50 here: minus log10 of the concentration in molar units.

> print(dat)
                                   molecule     test.system  test.value
1  C#Cc1cc(NC(=O)c2cc(F)c(Cl)s2)cn(CC(F)F)c1=O [Compound 342]  UniProt:P51532        6.13
2  O=C(Nc1ccc(=O)n(CCF)c1)c1cc(Cl)c(Cl)s1 [Compound 80]  UniProt:P51532        6.12
3  CCn1cc(NC(=O)c2cc(C#N)c(Cl)s2)cc(F)c1=O [Compound 180]  UniProt:P51532        6.42
4  Cn1c(C(=O)Nc2cc(Cl)c(=O)n(CC(F)(F)F)c2)cc(Cl)c1Cl [Compound 135]  UniProt:P51532        5.70
5  N#Cc1cc(C(=O)Nc2cc(F)c(=O)n(CCF)c2)sc1Cl [Compound 196]  UniProt:P51532        6.74

Next, consider the following molecule.
Entry Cc1ncc(C(=O)Nc2cc(F)c(=O)n(CCF)c2)s1 [Compound 222] needs its pIC50 filled in; supply it.
4.99

* * *

Reported IC50 is given for each of the following compounds.
biological target: FL-SMARCA2 (full-length human SMARCA2 isoform 1) (Homo sapiens, UniProt P51531); construct: FLAG tag (YKDDDDK) (C); made in house; host or cells: Sf21 insect cells (baculovirus, pFastBacI); assay: SMARCA2 ATPase activity assay (ADP-Glo, chicken mononucleosome substrate); format: biochemical; conditions: Table 3a.1; SMARCA2 5 nM, ATP 250 uM, mononucleosome 10 nM
Sequence (P51531 with tags, fused parts or gaps): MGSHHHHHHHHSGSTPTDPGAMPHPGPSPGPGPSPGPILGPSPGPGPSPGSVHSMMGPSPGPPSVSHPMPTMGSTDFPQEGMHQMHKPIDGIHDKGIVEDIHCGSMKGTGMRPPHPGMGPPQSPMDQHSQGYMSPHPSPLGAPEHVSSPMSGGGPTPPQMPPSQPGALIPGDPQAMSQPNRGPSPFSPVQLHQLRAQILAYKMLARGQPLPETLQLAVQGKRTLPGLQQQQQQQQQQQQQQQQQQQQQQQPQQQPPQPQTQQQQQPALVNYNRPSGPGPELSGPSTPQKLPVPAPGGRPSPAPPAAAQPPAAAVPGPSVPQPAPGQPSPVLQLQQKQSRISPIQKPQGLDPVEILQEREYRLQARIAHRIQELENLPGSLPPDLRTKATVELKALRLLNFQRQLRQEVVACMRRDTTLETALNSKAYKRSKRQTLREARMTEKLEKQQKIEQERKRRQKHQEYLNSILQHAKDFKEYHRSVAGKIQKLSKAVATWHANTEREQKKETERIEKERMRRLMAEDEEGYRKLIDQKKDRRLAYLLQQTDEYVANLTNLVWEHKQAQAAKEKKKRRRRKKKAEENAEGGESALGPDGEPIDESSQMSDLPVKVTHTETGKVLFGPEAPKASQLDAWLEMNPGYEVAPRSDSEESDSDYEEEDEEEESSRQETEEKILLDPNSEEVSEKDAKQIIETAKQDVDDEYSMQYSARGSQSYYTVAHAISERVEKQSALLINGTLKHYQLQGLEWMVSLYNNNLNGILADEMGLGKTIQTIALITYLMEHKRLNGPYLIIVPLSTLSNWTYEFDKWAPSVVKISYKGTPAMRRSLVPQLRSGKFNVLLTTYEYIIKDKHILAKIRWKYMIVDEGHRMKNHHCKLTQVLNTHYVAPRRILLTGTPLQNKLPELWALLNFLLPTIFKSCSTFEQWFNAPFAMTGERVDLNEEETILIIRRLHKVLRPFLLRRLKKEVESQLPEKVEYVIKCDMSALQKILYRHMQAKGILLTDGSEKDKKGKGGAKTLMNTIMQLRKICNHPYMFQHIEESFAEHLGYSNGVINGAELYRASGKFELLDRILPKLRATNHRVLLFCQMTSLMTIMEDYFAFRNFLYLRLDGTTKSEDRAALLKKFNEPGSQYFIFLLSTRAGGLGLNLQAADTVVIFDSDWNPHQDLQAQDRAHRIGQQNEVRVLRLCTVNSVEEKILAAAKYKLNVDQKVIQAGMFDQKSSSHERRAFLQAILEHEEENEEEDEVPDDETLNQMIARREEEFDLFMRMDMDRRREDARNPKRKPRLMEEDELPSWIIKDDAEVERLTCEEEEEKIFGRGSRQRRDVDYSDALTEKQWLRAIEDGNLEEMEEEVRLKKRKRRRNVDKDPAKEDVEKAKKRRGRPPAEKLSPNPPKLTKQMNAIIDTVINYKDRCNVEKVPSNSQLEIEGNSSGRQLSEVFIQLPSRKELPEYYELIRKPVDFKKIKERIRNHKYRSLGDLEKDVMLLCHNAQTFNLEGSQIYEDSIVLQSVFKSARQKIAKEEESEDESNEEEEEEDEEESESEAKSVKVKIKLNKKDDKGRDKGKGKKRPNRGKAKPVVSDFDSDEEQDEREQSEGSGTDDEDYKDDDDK

> print(dat)
                                   compound                               test.system  test.value
1  CCn1cc(NC(=O)c2ccc3c(c2)OCO3)ccc1=O [Compound 15a]  FL-SMARCA2 (full-length human SMARCA2 isoform 1) (Homo sapiens, UniProt P51531)     > 50 µM
2  O=C(Nc1ccc(=O)n(CC(F)(F)F)c1)c1nc2cc(F)c(Cl)cc2[nH]1 [Compound 41a]  FL-SMARCA2 (full-length human SMARCA2 isoform 1) (Homo sapiens, UniProt P51531)     > 50 µM

Next, consider the following compound.
Entry CCN(CC)c1nc2sc(C(=O)Nc3cc(F)c(=O)n(CCF)c3)cc2s1 [Compound 61a] needs its IC50 filled in; supply it.
> 50 µM

* * *

biological target: FL-SMARCA4 (Homo sapiens, UniProt P51532); assay: SMARCA4 ATPase activity assay (ADP-Glo, chicken mononucleosome substrate); settings: FL-SMARCA4 IC50
Sequence (P51532 whole entry): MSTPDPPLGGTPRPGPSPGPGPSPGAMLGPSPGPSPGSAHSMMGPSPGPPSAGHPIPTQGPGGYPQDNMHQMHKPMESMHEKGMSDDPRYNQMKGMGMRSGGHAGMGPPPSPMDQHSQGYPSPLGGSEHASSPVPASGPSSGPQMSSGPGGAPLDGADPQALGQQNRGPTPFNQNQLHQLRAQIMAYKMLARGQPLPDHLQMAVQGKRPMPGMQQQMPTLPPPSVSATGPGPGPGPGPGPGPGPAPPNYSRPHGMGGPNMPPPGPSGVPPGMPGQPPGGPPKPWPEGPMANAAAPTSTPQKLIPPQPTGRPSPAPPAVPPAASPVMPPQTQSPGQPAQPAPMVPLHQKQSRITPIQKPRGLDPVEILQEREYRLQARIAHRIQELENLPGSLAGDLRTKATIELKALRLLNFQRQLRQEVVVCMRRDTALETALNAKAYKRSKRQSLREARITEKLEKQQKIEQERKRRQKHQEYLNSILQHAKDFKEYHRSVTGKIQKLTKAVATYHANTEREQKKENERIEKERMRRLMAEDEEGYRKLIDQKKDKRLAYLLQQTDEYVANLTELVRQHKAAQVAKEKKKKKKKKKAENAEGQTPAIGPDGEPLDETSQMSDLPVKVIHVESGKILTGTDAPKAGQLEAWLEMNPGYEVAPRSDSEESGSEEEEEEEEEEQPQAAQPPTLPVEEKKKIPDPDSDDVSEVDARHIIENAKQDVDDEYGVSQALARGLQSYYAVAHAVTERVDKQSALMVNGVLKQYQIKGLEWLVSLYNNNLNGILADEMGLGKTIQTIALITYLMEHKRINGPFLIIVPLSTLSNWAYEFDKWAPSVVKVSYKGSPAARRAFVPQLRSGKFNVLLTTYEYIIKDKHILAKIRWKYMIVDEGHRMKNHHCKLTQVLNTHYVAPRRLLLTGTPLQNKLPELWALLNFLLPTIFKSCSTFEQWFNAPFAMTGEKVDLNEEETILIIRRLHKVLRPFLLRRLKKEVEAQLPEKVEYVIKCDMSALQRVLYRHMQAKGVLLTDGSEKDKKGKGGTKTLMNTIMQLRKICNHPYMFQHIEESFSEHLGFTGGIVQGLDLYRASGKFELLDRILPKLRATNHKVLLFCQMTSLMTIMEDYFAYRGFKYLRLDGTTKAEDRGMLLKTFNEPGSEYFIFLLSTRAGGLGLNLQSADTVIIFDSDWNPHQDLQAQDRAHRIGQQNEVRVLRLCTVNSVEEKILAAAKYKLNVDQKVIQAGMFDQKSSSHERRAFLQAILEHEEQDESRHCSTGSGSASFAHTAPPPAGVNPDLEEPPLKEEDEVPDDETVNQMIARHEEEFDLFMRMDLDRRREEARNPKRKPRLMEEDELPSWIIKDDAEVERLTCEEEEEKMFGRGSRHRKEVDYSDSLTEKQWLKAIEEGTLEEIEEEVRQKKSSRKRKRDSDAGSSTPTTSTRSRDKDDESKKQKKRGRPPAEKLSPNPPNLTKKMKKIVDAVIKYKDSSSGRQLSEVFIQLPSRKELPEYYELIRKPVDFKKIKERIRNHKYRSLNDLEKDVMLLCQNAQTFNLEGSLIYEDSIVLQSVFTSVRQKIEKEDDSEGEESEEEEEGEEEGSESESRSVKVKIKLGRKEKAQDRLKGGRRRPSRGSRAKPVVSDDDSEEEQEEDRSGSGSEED
metric-name: IC50 (µM)
Entry rule: numbers only, all in µM.

Field: example entries. Status: answers known.
> print(dat)
                                   compound  test.value
1  CCn1nc(NC(=O)c2cnc(Cl)s2)ccc1=O [Compound 20d]        28.9
2  N#Cc1cc(C(=O)Nc2cc(F)c(=O)n(CC(F)F)c2)sc1C1CC1 [Compound 87d]        4.99
3  O=C(Nc1cc(F)c(=O)n(CC(F)F)c1)c1cc(C#Cc2cnc3n2CCOC3)c(Cl)s1 [Compound 95d]        1.06
4  O=C(Nc1cc(F)c(=O)n(CC(F)F)c1)c1cc(C#CC2CCN(CC(F)(F)F)C2)c(Cl)s1 (centres unmarked) [Compound 110d]        4.61
5  N#Cc1ncc(C#Cc2cc(C(=O)Nc3cc(F)c(=O)n(CC(F)F)c3)sc2Cl)o1 [Compound 100d]     0.00853

Entry O=C(Nc1cc(F)c(=O)n(CC(F)F)c1)c1cc(C#C[C@H]2CCC[C@@H](O)C2)c(Cl)s1 [Compound 120d] needs its IC50 filled in; supply it.
0.201

Entry Cc1cc(NC(=O)c2cc(C#N)c(C(F)(F)F)s2)cn(CC(F)F)c1=O [Compound 75d] needs its IC50 filled in; supply it.
11.3

Entry N#Cc1cc(C(=O)Nc2cc(F)c(=O)n(CC(F)F)c2)sc1C1(F)CC1 [Compound 94d] needs its IC50 filled in; supply it.
17.9

Entry C[C@]1(C#Cc2cc(C(=O)Nc3cc(F)c(=O)n(CC(F)F)c3)sc2Cl)C[C@@H](O)C1 [Compound 136d] needs its IC50 filled in; supply it.
0.0852

Entry O=C(Nc1cc(F)c(=O)n(CC(F)F)c1)c1cc(C#CCn2ccnc2)c(Cl)s1 [Compound 116d] needs its IC50 filled in; supply it.
0.673

Entry N#Cc1cc(C(=O)Nc2cc(C(F)F)c(=O)n(CC(F)F)c2)sc1C(F)(F)F [Compound 76d] needs its IC50 filled in; supply it.
10.2

Entry O=C(Nc1cc(F)c(=O)n(CC(F)F)c1)c1cc(C#Cc2ccc3nncn3c2)c(Cl)s1 [Compound 91d] needs its IC50 filled in; supply it.
0.0698

* * *

biological target: FL-SMARCA2 (full-length human SMARCA2 isoform 1) (Homo sapiens, UniProt P51531); construct: FLAG tag (YKDDDDK) (C); made in house; host or cells: Sf21 insect cells (baculovirus, pFastBacI); assay: SMARCA2 ATPase activity assay (ADP-Glo, chicken mononucleosome substrate); type: biochemical; settings: Table 3.1; ATPase assay, enzyme 5 nM, ATP 250 uM, chicken mononucleosome 10 nM, 30 min preincubation
metric-name: log10 of IC50 (log10 of the value in µM)
Values below are the log10 of the recorded IC50, with µM as the unit.

Field: example entries. Status: answers known.
> print(dat)
                                   compound  test.value
1  CCn1cc(NC(=O)c2cc(Cl)c(C#N)[nH]2)cc(Cl)c1=O [Compound 236]       -0.90
2  O=C(Nc1cc(F)c(=O)n(CCF)c1)c1cc(Cl)n[nH]1 [Compound 155]       -0.79
3  CCn1cc(NC(=O)c2cnc(C#N)s2)cc(Cl)c1=O [Compound 136]       -1.24

Entry Cn1c(C(=O)Nc2cc(F)c(=O)n(CC(F)(F)F)c2)cnc1Cl [Compound 212] needs its log10 of IC50 filled in; supply it.
0.93
